Data credit: ChEMBL document CHEMBL2203238

# EXPERIMENTAL_SYSTEM: RAC-gamma serine/threonine-protein kinase (Homo sapiens, UniProt Q9Y243)
# Sequence (Q9Y243 whole entry): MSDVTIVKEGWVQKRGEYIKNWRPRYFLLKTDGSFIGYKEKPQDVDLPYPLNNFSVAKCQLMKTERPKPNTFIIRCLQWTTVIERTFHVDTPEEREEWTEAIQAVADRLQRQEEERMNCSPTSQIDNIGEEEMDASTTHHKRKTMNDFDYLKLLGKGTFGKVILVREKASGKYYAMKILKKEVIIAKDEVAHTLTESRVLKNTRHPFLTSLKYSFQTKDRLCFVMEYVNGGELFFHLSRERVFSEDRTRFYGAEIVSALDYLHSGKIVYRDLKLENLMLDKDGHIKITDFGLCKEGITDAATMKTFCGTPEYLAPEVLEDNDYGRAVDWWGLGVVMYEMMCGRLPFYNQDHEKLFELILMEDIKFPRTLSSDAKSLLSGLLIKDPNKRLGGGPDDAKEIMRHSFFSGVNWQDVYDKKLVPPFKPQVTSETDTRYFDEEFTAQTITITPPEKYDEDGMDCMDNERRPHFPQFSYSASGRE
# EXPERIMENT_NOTES: Inhibition of recombinant AKT3 after 1 hr by scintillation counter analysis in presence of gamma-[33P]ATP
pKi: −log10 of the molar value.
REPORTED_PROPERTY: pKi

Which pKi is reported with RAC-gamma serine/threonine-protein kinase (Homo sapiens, UniProt Q9Y243) for this entry: `CC(C)(C)Nc1c(Nc2ccnc(Nc3ccc(-c4ccncc4)cc3)n2)c(=O)c1=O` ?
< 5.05

###

# EXPERIMENTAL_SYSTEM: Macrophage colony-stimulating factor 1 receptor (Homo sapiens, UniProt P07333)
# Sequence (P07333 whole entry): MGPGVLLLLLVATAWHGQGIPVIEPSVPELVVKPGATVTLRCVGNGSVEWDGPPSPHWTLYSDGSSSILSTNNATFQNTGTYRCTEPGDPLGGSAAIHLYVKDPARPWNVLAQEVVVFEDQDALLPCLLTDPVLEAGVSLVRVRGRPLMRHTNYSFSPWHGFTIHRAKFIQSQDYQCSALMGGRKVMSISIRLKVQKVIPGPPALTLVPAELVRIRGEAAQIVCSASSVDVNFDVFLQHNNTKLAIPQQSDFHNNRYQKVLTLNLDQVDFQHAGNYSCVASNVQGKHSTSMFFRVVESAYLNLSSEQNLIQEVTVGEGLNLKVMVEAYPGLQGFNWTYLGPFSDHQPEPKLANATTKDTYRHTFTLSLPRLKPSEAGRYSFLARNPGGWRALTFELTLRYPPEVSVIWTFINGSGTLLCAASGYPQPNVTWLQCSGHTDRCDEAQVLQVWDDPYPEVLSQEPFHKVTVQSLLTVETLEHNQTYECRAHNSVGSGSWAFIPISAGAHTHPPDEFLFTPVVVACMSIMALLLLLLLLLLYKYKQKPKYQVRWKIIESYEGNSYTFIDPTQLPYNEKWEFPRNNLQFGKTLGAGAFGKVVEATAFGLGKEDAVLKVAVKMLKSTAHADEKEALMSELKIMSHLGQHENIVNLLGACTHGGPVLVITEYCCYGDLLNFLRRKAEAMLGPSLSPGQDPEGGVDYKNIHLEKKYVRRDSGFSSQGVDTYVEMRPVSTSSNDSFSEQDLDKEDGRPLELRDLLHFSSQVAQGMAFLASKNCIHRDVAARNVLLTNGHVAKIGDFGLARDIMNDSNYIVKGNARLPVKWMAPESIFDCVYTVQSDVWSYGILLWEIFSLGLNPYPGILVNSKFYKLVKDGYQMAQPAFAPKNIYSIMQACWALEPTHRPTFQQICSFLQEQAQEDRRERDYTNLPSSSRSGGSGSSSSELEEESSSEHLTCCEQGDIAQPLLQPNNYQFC
# EXPERIMENT_NOTES: Inhibition of recombinant CSF1R after 1 hr by scintillation counter analysis in presence of gamma-[33P]ATP
REPORTED_PROPERTY: Ki (nM)
# value in nM; strip the unit string

Query Ki on Macrophage colony-stimulating factor 1 receptor (Homo sapiens, UniProt P07333) for `CC(C)(C)Nc1c(Nc2ccnc(Nc3ccc(-c4ccncc4)cc3)n2)c(=O)c1=O`
2100
